// data source = ChEMBL document CHEMBL1201861

# System: LoVo;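 note: growth inhibition of human LoVo cells, read out with a cell viability assay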
# Test: cells
# Format: functional, cell-based
# Test Conditions: Homo sapiens
# Description: SANGER: Inhibition of human LoVo cell growth in a cell viability assay.
Observation Type: pIC50
Numbers only, as −log10 of the molar value.

// worked examples, pIC50 included
>>> numeric_result("CC[C@@]1(O)C(=O)OCc2c1cc1n(c2=O)Cc2cc3ccccc3nc2-1")
7.83
>>> numeric_result("N#C/C(=C1/Nc2ccccc2S1)c1ccnc(NCCc2cccnc2)n1")
5.57

Next, consider the following molecule.
Measured pIC50, `COc1cc(Nc2c(C#N)cnc3cc(OCCCN4CCN(C)CC4)c(OC)cc23)c(Cl)cc1Cl` : 5.70

====

# Test system: NCI-H2126;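 note: growth inhibition of the cancer cell line, determined with a cell viability readout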
# Test: cells
# Format: functional, cell-based
# Test Conditions: Homo sapiens
# Description: SANGER: Inhibition of human NCI-H2126 cell growth in a cell viability assay.
pIC50: −log10 of the molar value.
Exercise: for every item that follows, state its recorded pIC50.

>>> result("N#C/C(=C1/Nc2ccccc2S1)c1ccnc(NCCc2cccnc2)n1")
"< 5.10"

Each of the following entries comes with a recorded value; kindly state pIC50 for each.
1. C/C(O)=C(\C#N)C(=O)Nc1cc(Br)ccc1Br
2. COc1cc(C)c(Sc2cnc(NC(=O)c3ccc(CNC(C)C(C)(C)C)cc3)s2)cc1C(=O)N1CCN(C(C)=O)CC1 (configuration not stated)
3. CO[C@@]12[C@H](COC(N)=O)C3=C(C(=O)C(C)=C(N)C3=O)N1C[C@@H]1N[C@@H]12 [MITOMYCIN]
4. O=c1[nH]c2ccccc2n1C1CCN(Cc2ccc(-c3nc4cc5[nH]cnc5cc4nc3-c3ccccc3)cc2)CC1
5. CC[C@]1(O)C[C@@H]2CN(CCc3c([nH]c4ccccc34)[C@@](C(=O)OC)(c3cc4c(cc3OC)N(C)[C@H]3[C@@](O)(C(=O)OC)[C@H](OC(C)=O)[C@]5(CC)C=CCN6CC[C@]43[C@@H]65)C2)C1 [VINBLASTINE]
6. C[C@]12O[C@H](C[C@]1(O)CO)n1c3ccccc3c3c4c(c5c6ccccc6n2c5c31)CNC4=O [LESTAURTINIB]

a:
1: < 4.80; 2: < 4.99; 3: 6.58; 4: < 5.59; 5: 7.59; 6: < 5.70

====

# System: GT3TKB
# Test: cells
# Format: functional, cell-based
# Test Conditions: Homo sapiens
# Description: SANGER: Inhibition of human GT3TKB cell growth in a cell viability assay.
Observation Type: log10 of IC50 (log10 of the value in nM)
In plain terms, each number is the log10 of measured IC50 in nM.

// worked examples, log10 of IC50 included
>>> numeric_result("CC[C@]1(O)C[C@@H]2CN(CCc3c([nH]c4ccccc34)[C@@](C(=O)OC)(c3cc4c(cc3OC)N(C)[C@H]3[C@@](O)(C(=O)OC)[C@H](OC(C)=O)[C@]5(CC)C=CCN6CC[C@]43[C@@H]65)C2)C1")
0.28
>>> numeric_result("CC(=O)c1c(C)c2cnc(Nc3ccc(N4CCNCC4)cn3)nc2n(C2CCCC2)c1=O")
3.41
>>> numeric_result("Cn1c(=O)n(-c2ccc(C(C)(C)C#N)cc2)c2c3cc(-c4cnc5ccccc5c4)ccc3ncc21")
2.07
>>> numeric_result("Fc1cc(-c2cc[nH]/c(=N/c3ccc(-n4cnc(N5CCOCC5)n4)cc3)n2)cc(N2CCOCC2)c1")
2.48

Next, consider the following molecule.
Measured log10 of IC50, CCn1c(-c2nonc2N)nc2cnc(Oc3cccc(NC(=O)c4ccc(OCCN5CCOCC5)cc4)c3)cc21 [GSK-269962A] : 3.20
